target: Lysine-specific demethylase 4C (Homo sapiens) (UniProt Q9H3R0); experiment: GASC-1 (JMJD2C) histone demethylase inhibitors, dose response, biochemical, DELFIA europium, cherry-picked samples (AID 488835); settings: GST-JMJD2C(1-420), H3K9me3 demethylation; series mostly up to 6 µM;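 also: signal is the H3K9me2 demethylation product detected by a dimethyl-specific antibody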
Sequence (Q9H3R0 1-420 limits assumed): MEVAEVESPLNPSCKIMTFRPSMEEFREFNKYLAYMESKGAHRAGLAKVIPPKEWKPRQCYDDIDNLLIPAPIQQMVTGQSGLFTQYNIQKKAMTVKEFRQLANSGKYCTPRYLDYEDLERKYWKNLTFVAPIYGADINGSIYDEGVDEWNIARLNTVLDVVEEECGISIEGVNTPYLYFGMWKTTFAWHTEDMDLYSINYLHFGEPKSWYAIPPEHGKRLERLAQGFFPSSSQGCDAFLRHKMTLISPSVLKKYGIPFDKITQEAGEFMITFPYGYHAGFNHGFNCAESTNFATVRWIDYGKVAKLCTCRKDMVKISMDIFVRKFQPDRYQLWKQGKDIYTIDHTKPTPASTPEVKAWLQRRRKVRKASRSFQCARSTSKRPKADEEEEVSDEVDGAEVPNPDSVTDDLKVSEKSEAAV
Screen size: about 1,400 compounds; about 140 (10%) were called active. The list is a sample of the results. Entries with a potency or affinity are not part of this list.
observed property: outcome

See these solved cases before continuing.
COC(=O)[C@]1(C)N[C@H](CN(C)C(=O)NC(C)C)[C@@H]2C(=O)N(Cc3ccccc3)C(=O)[C@@H]21 :: inactive
CCCCNC(=O)CC1N=C2c3ccccc3N=C(SCC(=O)Nc3cccc(C)c3)N2C1=O (stereo not given) :: inactive
Cc1occc1-c1nnc(SCC(=O)c2cc3ccccc3oc2=O)o1 :: inactive
CC(=O)N1C(c2ccccc2O)C[C@]2(C)CC(=O)NC12 (stereo not given in full) :: inactive
COc1ccc(N(CC(=O)Nc2ccc(S(=O)(=O)N3CCCC3)cc2)S(C)(=O)=O)cc1OC :: inactive

I'd like to know its outcome. The compound in question is CC(C)NC(=O)Nc1ccc2c(c1)C(=O)N([C@H](C)CO)C[C@@H](C)[C@@H](CN(C)C(=O)NC1CCCCC1)O2 inactive

Dear colleague, I am looking for the recorded outcome of the following compound: Fc1cccc(F)c1/C=N/N1CCOCC1 inactive
